B1: ZNF232 (parent)
chain: HSGEKPFICKECGKAYGWCSELIR

- Variants of: B1
- Procedure summary: protein stability index of a GFP-peptide fusion (GPS, HEK-293T) (PSI 1-6); higher = more stable;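 also: lentivirally expressed fusions sorted by FACS into six bins by GFP to DsRed ratio, PSI derived from sequencing read proportions per bin multiplied by bin number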
- Condition summary: c terminus: a fixed tail appended
Assay endpoint: protein stability index
Returns: the value as a bare number; no unit string appended.

Look over these answered cases.
1. C19G
1.89
2. S20G
1.96
3. K10G
1.96

Request: Identify the reported protein stability index for the following entry. `E21P`
Result: 2.5

Request: Tell me measured protein stability index for `E11Q` please.
Result: 1.52

Request: Given `W18E` , respond with its protein stability index.
Result: 2.95

Request: Let me know recorded protein stability index for `G13W` , thanks.
Result: 1.53

Request: Tell me its protein stability index given `G13T` as the entry.
Result: 1.65
